Experiment: Pharmacokinetic study in plasma after oral hexanic extract of Tagetes lucida, healthy and LPS-damaged mice
Assay type: in vivo, ICR mice
Conditions: ICR, mouse, plasma, po, 10 mg/kg, healthy ICR mice, 10 mg/kg oral hexanic extract, mean ± SEM (n = 5)
Threshold check on half-life: strictly below 2 h is Criterion met; on or above 2 h is Criterion not met.

Answered cases to consult:
• COc1cc2ccc(=O)oc2cc1OCC=C(C)C [PE, 7-O-prenylscopoletin] = Criterion met
• COc1ccc2ccc(=O)oc2c1 [HR, herniarin] = Criterion met
• COc1cc2ccc(=O)oc2c(OC)c1OC [DF, dimethylfraxetin] = Criterion met

[ask] Bench note: check whether COc1cc2ccc(=O)oc2cc1OC [SC, scoparone] shows half-life below 2 h
[reply] Criterion not met

[ask] Bench note: check whether CC(C)=CCOc1ccc2ccc(=O)oc2c1 [PU, 7-O-prenylumbelliferone] shows half-life below 2 h
[reply] Criterion met

====

Experiment: Pharmacokinetic study in plasma after oral hexanic extract of Tagetes lucida, healthy and LPS-damaged mice
Format: in vivo, ICR mice
Conditions: ICR, mouse, plasma, po, 10 mg/kg, LPS-damaged ICR mice, 10 mg/kg oral hexanic extract, mean ± SEM (n = 5)
Listed next: entries and their corresponding MRT.
Write the value in h as a bare number.

* COc1cc2ccc(=O)oc2c(OC)c1OC [DF, dimethylfraxetin] | 2.72
* CC(C)=CCOc1ccc2ccc(=O)oc2c1 [PU, 7-O-prenylumbelliferone] | 2.68
* COc1cc2ccc(=O)oc2cc1OCC=C(C)C [PE, 7-O-prenylscopoletin] | 6.96

[ask] Look up MRT for this compound: COc1cc2ccc(=O)oc2cc1OC [SC, scoparone]
[reply] 2.26

[ask] Look up MRT for this compound: COc1ccc2ccc(=O)oc2c1 [HR, herniarin]
[reply] 2.77

====

Experiment: Pharmacokinetic study in plasma after oral hexanic extract of Tagetes lucida, healthy and LPS-damaged mice
Assay type: in vivo, ICR mice
Conditions: ICR, mouse, plasma, po, 10 mg/kg, LPS-damaged ICR mice (LPS 2 mg/kg i.p.), 10 mg/kg oral hexanic extract, non-compartmental, mean ± SEM (n = 5)
Protocol: The optimized HPLC-validated method for the quantification of coumarins present in the hexane extract of T. lucida was used to evaluate the concentration profiles over time in the plasma, brain, kidney, and spleen biological matrices after an oral administration of 10 mg/kg of the extract. Blood samples were obtained from the retro-orbital sinus of mice and collected in heparinized tubes. […] Pharmacokinetic parameters of PE, SC, DF, HR, and PU in plasma were calculated by PKSolver software.
Listed next: entries and their corresponding Cmax.
Write the value in ng/mL as a bare number.

Example entries and their recorded answers appear below.
• COc1ccc2ccc(=O)oc2c1 [HR, herniarin] = 1480
• COc1cc2ccc(=O)oc2cc1OCC=C(C)C [PE, 7-O-prenylscopoletin] = 1770
• COc1cc2ccc(=O)oc2c(OC)c1OC [DF, dimethylfraxetin] = 1820
• COc1cc2ccc(=O)oc2cc1OC [SC, scoparone] = 1280

Shift focus to the following entry.
[ask] Look up Cmax for this compound: CC(C)=CCOc1ccc2ccc(=O)oc2c1 [PU, 7-O-prenylumbelliferone]
[reply] 690

====

Test: Stability of the analytes in spiked plasma, brain, kidney and spleen matrices (autosampler, long-term, freeze-thaw)
Format: physicochemical, mice
Conditions: spleen, nominal 0.3 µg/mL, processed samples in autosampler vials 24 h room temperature
metric_name: Stability Autosampler RE (%)
Write the value in % as a bare number.

Example entries and their recorded answers appear below.
* COc1cc2ccc(=O)oc2c(OC)c1OC | 6.88
* COc1ccc2ccc(=O)oc2c1 | 5.46
* COc1cc2ccc(=O)oc2cc1OCC=C(C)C | -5.98
* CC(C)=CCOc1ccc2ccc(=O)oc2c1 | -0.09

Shift focus to the following entry.
[ask] Look up Stability Autosampler RE (%) for this molecule: COc1cc2ccc(=O)oc2cc1OC
[reply] -7.70
